Value source: patent US20230365659A1

target.entity: T1, SARS-CoV2 spike RBD variant strain (SPD-C52Hp, Acro Biosystems, K417N, E484K, N501Y) (SARS-CoV-2, UniProt P0DTC2 319-537)
T1 construct: domain: RBD
method: BLI (Octet), biotinylated RBD on SA sensor, VHH as analyte, 1:1 fit
Would you mind telling me the reported koff of each entry?
Please give the number followed by its unit.

## Task State the recorded koff for this entry: Bacillus subtilis-derived VHH-COVE7 (VHH) VHH: EVQLVESGGGLVQAGDSLRLSCTASGRTFSSCAMGWFRQAPGKEREFVAAISRGGGSTSYADSVKGRFTISKDRARNTAYLEMNSLKPEDTAIYYCYAVFPSGGDYWGQGTQVTVSS
## Result 0.00398 s⁻¹

## Task Recorded koff of Bacillus subtilis-derived VHH-COVE8 (VHH) VHH: EVQLVESGGGLVQPGGSLTLSCAASGQTFSSYNMAWFRQSPGKEREFVATISWGGGSTGYADSVKGRFTISRDHAKNTVYLQMKDLKPEDTGAYYCYLVGLFGIQASDYWGQGTQVTVSS , please.
## Result 0.0191 s⁻¹

## Task koff for Bacillus subtilis-derived VHH-COVE2 (VHH) VHH: AEVQLVESGGGLVQAGDSLRLSCAATRRTSSTYAMGWFRQAPGKGLEWVAAISWDGGRTYYAESVKGRFTISRDNAKNTVYLQMNSLKPEDTAVYYCYSFGGSDFLMDYWGQGTQVTVSSGGGSHHHHHH ?
## Result 0.00529 s⁻¹

## Task Look at this binder and give its reported koff. Bacillus subtilis-derived VHH-COVE3 (VHH) VHH: AEVQLVESGGGFVQAGGSLRLSCRVSAPTFMTYTMAWFRQAPGNEREFVAALSKNFVTTSYADSVKGRFTISRDNAKNTVYLQMNSLKPEDTAVYYCNVAWSDYEYLEVWGQGTLVTVSSGGGSHHHHHH
## Result 0.0106 s⁻¹
